Taken from patent US20160052926A1.

Record type: pIC50 measurement. Applies to: UniProtKB P22607
pIC50: −log10 of the molar value.

{"columns": ["Smiles Notation", "pIC50"],
 "data": [
  ["CNC(=O)c1cc(CCc2cnc(Nc3cnn([C@@H]4CCCNC4)c3)nc2)c(F)c(OC)c1", 8.10],
  ["CNC(=O)c1cc(CCc2cnc(Nc3cnn(CC(=O)N4CCN(C)CC4)c3)nc2)c(F)c(OC)c1", 7.80],
  ["CNC(=O)c1cc(COc2cnc(Nc3ccc(O)cc3)nc2)c(F)c(OC)c1", 7.68],
  ["CNC(=O)c1cc(CCc2cnc(Nc3cnn(C4CCN(C)CC4)c3)nc2)c(F)c(OC)c1", 7.55],
  ["CNC(=O)c1cc(CCc2cnc(Nc3cnn(CC4(C)COC4)c3)nc2)c(F)c(OC)c1", 7.96],
  ["CCn1ncc(Nc2ncc(CCc3cc(C(=O)NC)cc(OC)c3F)cn2)c1C", 7.62],
  ["CNC(=O)c1cc(CCc2cnc(Nc3ccc(N4C[C@@H](C)N[C@@H](C)C4)cc3)nc2)c(Cl)c(OC)c1", 8.22],
  ["CNC(=O)c1cc(CCc2cnc(Nc3cnn(C(F)F)c3)nc2)c(Cl)c(OC)c1", 7.48]
]}

----------
System: RT-112
Method Notes: Cellular Proliferation Assay (Cell Counting Kit-8), RT-112
Type: cell-based
Run Parameters: Homo sapiens, RT-112 cells, 72 hours
Protocol: Cellular Proliferation Assay • KG-1 (ATCC Accession No. CCL-246), • SNU-16 (ATCC Accession No. CRL-5974), • RT-112 (ECACC Accession No. 85061106) […] The concentration of compound providing 50% of proliferation inhibition was calculated using Excel Fit.
pIC50: −log10 of the molar value.

{"columns": ["Smiles Notation", "pIC50"],
 "data": [
  ["CNC(=O)c1cc(CCc2cnc(Nc3cnn(CCN(C)C)c3)nc2)c(F)c(OC)c1", 6.12],
  ["CCn1cc(Nc2ncc(CCc3cc(C(=O)NC)cc(OC)c3Cl)cn2)cn1", 7.28],
  ["CNC(=O)c1cc(CCc2cnc(Nc3cnn(C4CC4)c3)nc2)c(Cl)c(OC)c1", 6.91],
  ["CCn1cc(Nc2ncc(CCc3cc(OC)cc(C(=O)NC)c3F)cn2)cn1", 6.40],
  ["CNC(=O)c1cc(CCc2cnc(Nc3cnn([C@@H]4CCCNC4)c3)nc2)c(F)c(OC)c1", 6.12],
  ["CNC(=O)c1cc(CCc2cnc(Nc3ccc4ncnn4c3)nc2)c(F)c(OC)c1", 7.14],
  ["CNC(=O)c1cc(CCc2cnc(Nc3cnn(CC(C)C)c3)nc2)c(F)c(OC)c1", 6.66],
  ["CNC(=O)c1cc(CCc2cnc(Nc3ccc(N4C[C@@H](C)N[C@@H](C)C4)c(F)c3)nc2)c(Cl)c(OC)c1", 7.82]
]}

----------
The compounds listed here are annotated with their IC50.
Experimental Target: Recombinant human FGFR2 (Homo sapiens, UniProt P21802)
Sequence (P21802 22-821): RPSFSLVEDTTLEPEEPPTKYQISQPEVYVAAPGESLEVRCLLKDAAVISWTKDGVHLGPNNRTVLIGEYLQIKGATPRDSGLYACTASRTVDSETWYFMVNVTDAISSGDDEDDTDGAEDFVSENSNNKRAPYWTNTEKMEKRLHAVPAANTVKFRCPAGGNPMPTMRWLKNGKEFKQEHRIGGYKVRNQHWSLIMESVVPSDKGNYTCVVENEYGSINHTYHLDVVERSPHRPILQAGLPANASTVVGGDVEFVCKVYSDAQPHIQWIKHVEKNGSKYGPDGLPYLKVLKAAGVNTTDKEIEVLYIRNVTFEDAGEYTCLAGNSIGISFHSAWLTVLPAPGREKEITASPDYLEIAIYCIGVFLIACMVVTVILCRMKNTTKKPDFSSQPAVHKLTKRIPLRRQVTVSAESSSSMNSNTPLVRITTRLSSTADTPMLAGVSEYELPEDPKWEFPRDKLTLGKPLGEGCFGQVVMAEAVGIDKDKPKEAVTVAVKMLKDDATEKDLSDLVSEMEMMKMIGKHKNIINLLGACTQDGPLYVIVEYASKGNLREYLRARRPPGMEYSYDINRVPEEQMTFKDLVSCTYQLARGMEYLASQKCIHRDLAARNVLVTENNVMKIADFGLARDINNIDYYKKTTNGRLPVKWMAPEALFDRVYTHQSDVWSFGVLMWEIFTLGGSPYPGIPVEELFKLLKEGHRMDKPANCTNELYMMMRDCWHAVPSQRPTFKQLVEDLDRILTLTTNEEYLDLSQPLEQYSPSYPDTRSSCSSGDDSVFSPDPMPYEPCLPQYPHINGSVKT
Method Notes: Transcreener Kinase Assay of FGFR2
Format: biochemical
Run Parameters: read-out: FGFR2 (FP) IC50

{"columns": ["Compound", "IC50"],
 "data": [
  ["CNC(=O)c1cc(CCc2cnc(Nc3cnn(CC4CCN(C)CC4)c3)nc2)c(Cl)c(OC)c1 [Compound 154]", "5 nM"],
  ["CCN1CCN(c2ccc(Nc3ccc(CCc4cc(C(=O)NOC)cc(OC)c4C)cn3)cc2)CC1 [Compound 47]", "6 nM"],
  ["CCn1cc(Nc2ncc(CCc3cc(C(=O)NC)cc(OC)c3F)cn2)cn1 [Compound 100]", "5 nM"]
]}

----------
Test system: RT-112
Method Notes: Cellular Proliferation Assay (Cell Counting Kit-8), RT-112
Format: cell-based
Run Parameters: Homo sapiens, RT-112 cells, 72 hours
Define the label as T when IC50 is strictly less than 200 nM and as F in all remaining cases.

{"columns": ["Compound", "Cat"],
 "data": [
  ["CCN1CCC(Cn2cc(Nc3ncc(CCc4cc(C(=O)NC)cc(OC)c4Cl)cn3)cn2)CC1 [Compound 155]", "T"],
  ["CNC(=O)c1cc(CCc2cnc(Nc3cnn(CCCOC)c3)nc2)c(F)c(OC)c1 [Compound 126]", "T"],
  ["CNC(=O)c1cc(COc2cnc(Nc3ccc(N4CCNCC4)cc3)nc2)c(F)c(OC)c1 [Compound 188]", "T"],
  ["CNC(=O)c1cc(CCc2cnc(Nc3cnn(CCO)c3)nc2)c(Cl)c(OC)c1 [Compound 148]", "F"],
  ["CNC(=O)c1cc(CCc2cnc(Nc3cnn([C@H]4CCN(C)C4)c3)nc2)c(F)c(OC)c1 [Compound 168]", "F"],
  ["CNC(=O)c1cc(CCc2cnc(Nc3cnn(-c4cccnc4)c3)nc2)c(F)c(OC)c1 [Compound 128]", "T"],
  ["CNC(=O)c1cc(CCc2cnc(Nc3cnn(CCN4CCN(C)CC4)c3)nc2)c(Cl)c(OC)c1 [Compound 89]", "T"],
  ["CNC(=O)c1cc(CCc2cnc(Nc3cnn(C4CN(C)C4)c3)nc2)c(F)c(OC)c1 [Compound 166]", "F"],
  ["CNC(=O)c1cc(CCc2cnc(Nc3cnn(C4COC4)c3)nc2)c(F)c(OC)c1 [Compound 117]", "T"],
  ["CONC(=O)c1cc(CCc2cnc(Nc3ccc(F)cc3)nc2)cc(OC)c1 [Compound 104]", "T"]
]}

----------
Experimental Target: Recombinant human FGFR1 (Homo sapiens, UniProt P11362)
Sequence (P11362 22-822): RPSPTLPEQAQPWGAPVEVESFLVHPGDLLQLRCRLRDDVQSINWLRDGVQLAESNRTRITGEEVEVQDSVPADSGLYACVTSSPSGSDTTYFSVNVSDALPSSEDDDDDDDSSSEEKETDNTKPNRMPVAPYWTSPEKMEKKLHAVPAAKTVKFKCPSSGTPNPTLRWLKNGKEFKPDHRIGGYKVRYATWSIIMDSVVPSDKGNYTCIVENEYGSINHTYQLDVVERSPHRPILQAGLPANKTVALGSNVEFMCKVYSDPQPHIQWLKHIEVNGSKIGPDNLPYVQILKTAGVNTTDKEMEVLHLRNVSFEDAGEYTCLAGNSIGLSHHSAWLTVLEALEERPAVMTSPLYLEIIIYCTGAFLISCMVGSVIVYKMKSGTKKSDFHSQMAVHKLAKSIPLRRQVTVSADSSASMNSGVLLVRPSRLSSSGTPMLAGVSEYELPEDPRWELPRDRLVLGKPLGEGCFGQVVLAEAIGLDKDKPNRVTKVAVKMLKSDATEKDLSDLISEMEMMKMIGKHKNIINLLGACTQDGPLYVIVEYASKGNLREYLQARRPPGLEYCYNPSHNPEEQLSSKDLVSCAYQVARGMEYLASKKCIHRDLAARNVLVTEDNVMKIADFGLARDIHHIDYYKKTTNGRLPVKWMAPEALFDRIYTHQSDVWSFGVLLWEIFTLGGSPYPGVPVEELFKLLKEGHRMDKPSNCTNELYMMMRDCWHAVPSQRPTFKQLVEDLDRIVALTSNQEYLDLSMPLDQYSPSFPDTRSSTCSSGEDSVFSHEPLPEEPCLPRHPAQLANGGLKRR
Method Notes: Transcreener Kinase Assay of FGFR1
Type: biochemical
Run Parameters: read-out: FGFR1 (FP) IC50
Collected IC50 values appear next to each entry.
Test Readout: IC50 (nM)

{"columns": ["Smiles Notation", "Test Readout", "Data Value"],
 "data": [
  ["CCn1cc(Nc2ncc(CCc3c(F)c(C(=O)NC)cc(OC)c3Cl)cn2)cn1", "IC50", 24],
  ["CNC(=O)c1cc(CCc2cnc(Nc3ccc(N4CCOCC4)cc3)nc2)c(Cl)c(OC)c1", "IC50", 15],
  ["CNC(=O)c1cc(CCc2cnc(Nc3cnn(CC4CCN(C)CC4)c3)nc2)c(Cl)c(OC)c1", "IC50", 12],
  ["CNC(=O)c1cc(CCc2cnc(Nc3cnn(CCOC)c3)nc2)c(Cl)c(OC)c1", "IC50", 9]
]}

----------
Experimental Target: Recombinant human FGFR1 (Homo sapiens)
Method Notes: Transcreener Kinase Assay of FGFR1
Assay type: biochemical
Run Parameters: read-out: FGFR1 (FP) IC50
Test Readout: IC50 (nM)

{"columns": ["Compound", "Data Value"],
 "data": [
  ["CCn1cnc(Nc2ncc(CCc3cc(C(=O)NC)cc(OC)c3F)cn2)c1 [Compound 28]", 360],
  ["CNC(=O)c1cc(CCc2cnc(Nc3cnn(CCO)c3)nc2)c(Cl)c(OC)c1 [Compound 148]", 9],
  ["CNC(=O)c1cc(CCc2cnc(Nc3ccc4c(C)n(C)nc4c3)nc2)c(F)c(OC)c1 [Compound 130]", 8]
]}

----------
Experimental Target: FGFR3 kinase (Homo sapiens, UniProt P22607)
Sequence (P22607 23-806): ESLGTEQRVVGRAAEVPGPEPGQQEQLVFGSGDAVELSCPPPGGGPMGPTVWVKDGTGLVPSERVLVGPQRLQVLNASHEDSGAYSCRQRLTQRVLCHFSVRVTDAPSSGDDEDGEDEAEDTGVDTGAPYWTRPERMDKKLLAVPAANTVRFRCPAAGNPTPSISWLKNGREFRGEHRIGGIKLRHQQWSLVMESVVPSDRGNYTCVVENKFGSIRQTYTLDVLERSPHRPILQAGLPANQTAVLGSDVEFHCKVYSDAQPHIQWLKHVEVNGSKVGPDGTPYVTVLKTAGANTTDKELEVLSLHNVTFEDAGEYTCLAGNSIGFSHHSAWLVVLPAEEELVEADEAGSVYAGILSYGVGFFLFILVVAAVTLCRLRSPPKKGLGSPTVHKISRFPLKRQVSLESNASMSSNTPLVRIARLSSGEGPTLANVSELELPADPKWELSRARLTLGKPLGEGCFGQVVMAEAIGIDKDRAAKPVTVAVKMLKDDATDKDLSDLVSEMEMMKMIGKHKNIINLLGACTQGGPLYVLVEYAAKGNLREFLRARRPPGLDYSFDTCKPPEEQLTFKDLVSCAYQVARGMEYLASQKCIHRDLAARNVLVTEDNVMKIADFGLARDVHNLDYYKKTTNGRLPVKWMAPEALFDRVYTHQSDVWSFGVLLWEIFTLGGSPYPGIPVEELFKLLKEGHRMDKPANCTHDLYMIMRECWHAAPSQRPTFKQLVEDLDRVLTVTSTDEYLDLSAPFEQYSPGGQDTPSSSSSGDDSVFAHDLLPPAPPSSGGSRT

{"columns": ["Smiles Notation", "Quantity Unit", "IC50"],
 "data": [
  ["CNC(=O)c1cc(CCc2cnc(Nc3ccc(N4CCCCC4=O)cc3)nc2)c(F)c(OC)c1", "nM", 32],
  ["CNC(=O)c1cc(CCc2cnc(Nc3ccc4c(c3)OCO4)nc2)c(F)c(OC)c1", "nM", 287],
  ["CCN1CCN(c2ccc(Nc3ncc(CCc4cc(C(=O)NOC)cc(OC)c4F)cn3)cc2)CC1", "nM", 2],
  ["CNC(=O)c1cc(CCc2cnc(Nc3cnn(C4CCN(C)CC4)c3)nc2)c(Cl)c(OC)c1", "nM", 9],
  ["CNC(=O)c1cc(CCc2cnc(Nc3cnn(C(C)C)c3)nc2)c(Cl)c(OC)c1", "nM", 15],
  ["CCn1cc(Nc2ncc(CCc3cc(C(=O)NC)cc(OC)c3F)cn2)cn1", "nM", 13],
  ["CCN1CCN(c2ccc(Nc3ncc(CCc4cc(OC)cc(C(=O)NOC(C)C)c4)cn3)cc2)CC1", "nM", 509],
  ["CONC(=O)c1cc(CCc2cnc(Nc3ccc(N4CCOCC4)cc3)nc2)cc(OC)c1", "nM", 16],
  ["CCN1CCC[C@@H](n2cc(Nc3ncc(CCc4cc(C(=O)NC)cc(OC)c4F)cn3)cn2)C1", "nM", 5],
  ["CNC(=O)c1cc(CCc2cnc(Nc3ccc(N4C[C@@H](C)N[C@@H](C)C4)nc3)nc2)c(Cl)c(OC)c1", "nM", 17],
  ["CNC(=O)c1cc(CCc2cnc(Nc3ccc4c(C)n(C)nc4c3)nc2)c(Cl)c(OC)c1", "nM", 16],
  ["CNC(=O)c1cc(CCc2cnc(Nc3ccnnc3)nc2)c(F)c(OC)c1", "nM", 62]
]}
